# Test system: OVCAR-8 ovarian
# Procedure Details: NCI-60 one-dose screen, 48 h (100 = growth as untreated, 0 = no growth, -100 = all killed)
# Applied Conditions: 10 µM unless noted
This is part of a sample that, as a whole, favours compounds with a hit. Of some 83,000 tested, about 20% had one in any assay.
I'd appreciate it if you could supply growth values for the items below.
Kindly answer with a numeric value in %, unit omitted.

In: Quick one: growth of COc1ccc(-c2n/c(=C\c3c(O)[nH]c4ccc(OC)cc34)cc3c2=Nc2ccccc2-3)cc1 ?
Out: 11.8

In: Quick one: growth of CC(=O)c1c(C)[nH]c(-c2nc3ccc(N4CCN(C)CC4)cc3[nH]2)c1-c1ccc(N(C)C)cc1 ?
Out: 43.7

In: Quick one: growth of CSc1ccc(N(C)c2nc(C)nc3c2CCC3)cc1 ?
Out: 12

In: Quick one: growth of Clc1ccccc1-c1nc(Nc2nc3ccccc3s2)nc(C(Cl)(Cl)Cl)n1 ?
Out: 68.6

In: Quick one: growth of O=C1/C(=C\c2ccc(Br)o2)SC(=S)N1CCc1ccc(O)cc1 ?
Out: 97.2

In: Quick one: growth of COc1cc2nc(Cl)nc(Nc3cccc(C(=O)/C=C/c4ccc(Cl)cc4)c3)c2cc1OC ?
Out: 78.9

In: Quick one: growth of CN1CCN(c2nc(-c3cccc4ccccc34)nc3sc4c(c23)CCCCCC4)CC1 ?
Out: 93

In: Quick one: growth of C=C(C)[C@@H]1CC[C@]2(C(=O)O)CC[C@]3(C)[C@H](CC[C@@H]4[C@@]5(C)C/C(=C/c6ccc(OC)cc6)C(=O)C(C)(C)[C@@H]5CC[C@]43C)[C@@H]12 ?
Out: 23.2

In: Quick one: growth of N#CC1=C(N)Oc2ccc3ccccc3c2C1c1ccccc1Cl (centres undefined) ?
Out: 61.8
